Source: the supplement of paper PMC12667976

B1: library; numbered along this chain (parent)
chain: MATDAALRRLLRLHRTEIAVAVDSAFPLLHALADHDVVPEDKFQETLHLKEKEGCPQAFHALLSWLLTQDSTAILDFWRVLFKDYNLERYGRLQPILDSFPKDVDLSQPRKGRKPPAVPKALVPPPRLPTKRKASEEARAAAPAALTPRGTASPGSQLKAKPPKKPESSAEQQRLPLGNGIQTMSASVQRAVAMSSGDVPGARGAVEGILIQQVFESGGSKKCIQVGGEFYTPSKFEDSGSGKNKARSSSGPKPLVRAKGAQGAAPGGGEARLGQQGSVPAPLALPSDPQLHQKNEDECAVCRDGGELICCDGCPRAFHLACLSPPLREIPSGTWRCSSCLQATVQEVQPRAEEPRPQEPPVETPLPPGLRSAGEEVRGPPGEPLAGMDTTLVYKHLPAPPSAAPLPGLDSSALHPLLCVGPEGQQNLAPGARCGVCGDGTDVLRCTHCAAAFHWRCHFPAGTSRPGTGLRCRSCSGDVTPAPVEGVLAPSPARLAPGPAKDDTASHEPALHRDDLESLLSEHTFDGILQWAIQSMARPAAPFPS

Variants of: B1
Assay: AIRE transcriptional activation functional score (insulin promoter-GFP; nonsense median 0, synonymous median 1) (normalised score); higher = higher AIRE activity (more reporter activation)
Settings: with insulin promoter-GFP reporter in HEK293
So basically every entry gets a class from its AIRE transcriptional activation functional score, ranges being lo: < 0.5; mid: ≥ 0.5 and < 1; hi: ≥ 1

# input Kindly identify the class of G306T .
# output hi

# input Kindly identify the class of I528K .
# output lo

# input Kindly identify the class of E237M .
# output hi
